Biological target: human mtHsp70 R126W PD variant (human, UniProt P38646 47-679, R126W)
Sequence (P38646 47-679 R126W): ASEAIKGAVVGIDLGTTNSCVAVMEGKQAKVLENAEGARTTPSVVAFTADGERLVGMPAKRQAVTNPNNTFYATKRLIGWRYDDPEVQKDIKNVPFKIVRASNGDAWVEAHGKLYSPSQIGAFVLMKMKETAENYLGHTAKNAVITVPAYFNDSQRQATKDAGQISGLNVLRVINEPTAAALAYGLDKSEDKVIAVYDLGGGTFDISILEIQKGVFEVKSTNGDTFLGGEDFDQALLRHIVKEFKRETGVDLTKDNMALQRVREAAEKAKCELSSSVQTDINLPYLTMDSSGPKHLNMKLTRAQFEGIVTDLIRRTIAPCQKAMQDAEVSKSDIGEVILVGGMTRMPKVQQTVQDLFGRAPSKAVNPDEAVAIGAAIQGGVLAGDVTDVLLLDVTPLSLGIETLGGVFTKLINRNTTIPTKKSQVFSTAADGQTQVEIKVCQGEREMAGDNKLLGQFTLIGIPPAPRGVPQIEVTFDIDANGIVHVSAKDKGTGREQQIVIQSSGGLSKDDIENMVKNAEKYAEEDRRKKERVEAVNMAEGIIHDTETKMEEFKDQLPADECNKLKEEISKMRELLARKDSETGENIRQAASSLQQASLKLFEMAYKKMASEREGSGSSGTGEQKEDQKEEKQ
Test: fluorescence polarisation
Where no end group is shown, it is not given here.
metric: Kd (µM)
Give the value in µM but do not write µM after it.

# input Annotate the binder ALLLSAPRR (also: fluorescein label, position not given here) [fluorescein-labeled P5 peptide (F-P5)] with its measured Kd.
# output 13.6
